# TARGET_OR_SYSTEM: human Plasma Kallikrein (Homo sapiens (Human), UniProt P03952)
# Sequence (P03952 391-638 limits assumed): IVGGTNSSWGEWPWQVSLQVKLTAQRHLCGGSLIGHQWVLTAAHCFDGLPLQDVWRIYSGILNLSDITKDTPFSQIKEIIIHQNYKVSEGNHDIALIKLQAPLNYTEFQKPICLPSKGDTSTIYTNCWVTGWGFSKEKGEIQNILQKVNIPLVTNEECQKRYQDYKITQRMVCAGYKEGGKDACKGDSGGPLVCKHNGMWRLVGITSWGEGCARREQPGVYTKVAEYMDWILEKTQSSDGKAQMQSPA
# Sequence (P03952 20-390 partner limits assumed): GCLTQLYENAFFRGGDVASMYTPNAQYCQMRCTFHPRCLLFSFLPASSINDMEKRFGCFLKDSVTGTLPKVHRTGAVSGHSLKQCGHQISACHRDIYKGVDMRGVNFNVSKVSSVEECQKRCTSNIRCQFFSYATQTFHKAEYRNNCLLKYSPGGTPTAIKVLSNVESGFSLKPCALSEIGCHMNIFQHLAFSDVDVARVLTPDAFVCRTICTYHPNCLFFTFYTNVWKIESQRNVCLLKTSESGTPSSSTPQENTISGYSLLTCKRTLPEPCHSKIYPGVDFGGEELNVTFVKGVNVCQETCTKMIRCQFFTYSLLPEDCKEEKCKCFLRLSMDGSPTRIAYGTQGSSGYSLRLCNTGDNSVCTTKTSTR
# TEST_NAME: In vitro enzyme inhibition of human plasma kallikrein (Pro-Phe-Arg-AMC cleavage)
# Assay type: biochemical
# RUN_PARAMETERS: human plasma kallikrein, PFR-AMC substrate, 37° C.; read-out: hPK IC50
MEASURED_METRIC: IC50

For the compound Cc1cc(N)nc(C)c1CNC(=O)c1cn(Cc2ccc3ncc(Cl)cc3c2)c2ccc(=O)[nH]c12 [Example 126] , give its measured IC50 value.
< 100 nM

For the compound Cc1cc(N)nc(C)c1CNC(=O)c1cn(Cc2cc(S(C)(=O)=O)c3ncc(Cl)cc3c2)nc1C#N [Example 68] , give its measured IC50 value.
< 100 nM

For the compound Nc1nccc2cc(CNC(=O)c3nnc(Cc4ccc5ncc(Cl)cc5c4)o3)ccc12 [Example 46] , give its measured IC50 value.
100 to 1000 nM

For the compound Cc1cc(N)nc(C)c1CNC(=O)c1c2ccccc2nn1Cc1ccc2ncc(Cl)cc2c1 [Example 14] , give its measured IC50 value.
> 10000 nM

For the compound N#Cc1nn(Cc2cc(F)c3ncc(Cl)cc3c2)cc1C(=O)NCc1n[nH]c2ccc(Cl)cc12 [Example 55] , give its measured IC50 value.
100 to 1000 nM

For the compound N#Cc1nn(Cc2ccc3ncc(Cl)cc3c2)cc1C(=O)NCc1cnc2[nH]cc(Cl)c2c1 [Example 50] , give its measured IC50 value.
100 to 1000 nM

For the compound Cc1cc(N)nc(C)c1CNC(=O)c1ncn(Cc2ccc3ncc(Cl)cc3c2)n1 [Example 4] , give its measured IC50 value.
< 100 nM

For the compound Cc1nc(N)ccc1CNC(=O)c1coc(Cc2ccc3ncc(Cl)cc3c2)n1 [Example 83] , give its measured IC50 value.
100 to 1000 nM
